system_under_test: TRAF2 and NCK-interacting protein kinase (Homo sapiens)
Sequence (Q9UKE5 whole entry, the tested form may be a part): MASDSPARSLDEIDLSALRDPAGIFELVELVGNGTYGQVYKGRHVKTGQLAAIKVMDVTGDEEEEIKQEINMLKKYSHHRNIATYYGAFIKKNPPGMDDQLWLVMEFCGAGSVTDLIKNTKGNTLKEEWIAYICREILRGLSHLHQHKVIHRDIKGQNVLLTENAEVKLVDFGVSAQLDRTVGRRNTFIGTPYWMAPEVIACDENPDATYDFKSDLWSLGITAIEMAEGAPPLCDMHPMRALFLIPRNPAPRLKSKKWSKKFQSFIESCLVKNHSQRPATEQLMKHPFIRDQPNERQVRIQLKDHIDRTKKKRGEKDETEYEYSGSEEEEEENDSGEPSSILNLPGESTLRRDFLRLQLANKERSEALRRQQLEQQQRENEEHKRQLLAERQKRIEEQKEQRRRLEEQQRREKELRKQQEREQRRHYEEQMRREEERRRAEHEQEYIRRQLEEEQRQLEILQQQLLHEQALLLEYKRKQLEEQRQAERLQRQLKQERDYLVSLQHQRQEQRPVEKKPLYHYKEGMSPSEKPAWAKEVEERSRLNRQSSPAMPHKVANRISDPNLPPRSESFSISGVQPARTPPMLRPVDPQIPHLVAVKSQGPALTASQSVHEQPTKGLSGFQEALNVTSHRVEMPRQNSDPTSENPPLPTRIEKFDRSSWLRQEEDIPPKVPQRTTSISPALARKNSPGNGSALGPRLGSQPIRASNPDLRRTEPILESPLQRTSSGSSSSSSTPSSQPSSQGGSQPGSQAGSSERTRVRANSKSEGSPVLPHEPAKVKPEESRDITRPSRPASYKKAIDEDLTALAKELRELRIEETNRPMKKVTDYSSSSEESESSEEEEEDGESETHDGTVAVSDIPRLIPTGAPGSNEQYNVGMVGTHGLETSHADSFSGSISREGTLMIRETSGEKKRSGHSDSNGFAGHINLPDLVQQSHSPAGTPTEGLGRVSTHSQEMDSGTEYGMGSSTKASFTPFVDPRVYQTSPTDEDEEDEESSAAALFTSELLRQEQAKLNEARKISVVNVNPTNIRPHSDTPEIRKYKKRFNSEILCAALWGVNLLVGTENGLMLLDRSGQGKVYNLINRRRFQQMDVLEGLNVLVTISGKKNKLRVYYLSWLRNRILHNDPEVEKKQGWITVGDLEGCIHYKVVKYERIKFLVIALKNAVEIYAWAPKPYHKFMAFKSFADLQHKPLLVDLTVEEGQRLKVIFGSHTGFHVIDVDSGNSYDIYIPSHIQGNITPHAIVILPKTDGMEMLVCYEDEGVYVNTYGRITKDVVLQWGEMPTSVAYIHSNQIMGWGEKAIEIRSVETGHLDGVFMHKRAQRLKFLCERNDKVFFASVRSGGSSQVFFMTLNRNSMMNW
method_summary: Inhibition of human recombinant TNIK (1 to 367 residues) using RLGRDKYKTLRQIRQ as substrate incubated for 40 mins in presence of Mg/ATP mix by [gamma p33]-ATP based radiometric scintillation counting method
// assign y if IC50 falls strictly below 1 µM, else n (ties count as n)

structure_string=COc1cccc(Cn2c(=O)oc3cc(-c4cccnc4)ccc32)c1 assigned_label=n
structure_string=COc1cccc(Cn2c(=O)oc3cc(-c4cncnc4)ccc32)c1 assigned_label=n
structure_string=O=c1oc2cc(-c3ccc4[nH]ccc4c3)ccc2n1Cc1ccc(F)cc1 assigned_label=n
structure_string=N#Cc1cccc(Cn2c(=O)oc3cc(-c4cnc5[nH]ccc5c4)ccc32)c1 assigned_label=n
structure_string=COc1cccc(Cn2c(=O)oc3cc(-c4ccc5c(c4)CCN5)ccc32)c1 assigned_label=y

We next turn to a different molecule, shown below.
Task: For COc1cccc(Cn2c(=O)oc3cc(-c4cnc5cc[nH]c5c4)ccc32)c1 , is the recorded IC50 below the cut-off of 1 µM?
Result: n
